# TEST SYSTEM: T1, cynomolgus DLL4 expressed on CHO cells (cynomolgus, UniProt Q9NR61 27-685 (human entry))
# T1 construct: also called cDLL4; CHO-cDLL4
# T1 chain: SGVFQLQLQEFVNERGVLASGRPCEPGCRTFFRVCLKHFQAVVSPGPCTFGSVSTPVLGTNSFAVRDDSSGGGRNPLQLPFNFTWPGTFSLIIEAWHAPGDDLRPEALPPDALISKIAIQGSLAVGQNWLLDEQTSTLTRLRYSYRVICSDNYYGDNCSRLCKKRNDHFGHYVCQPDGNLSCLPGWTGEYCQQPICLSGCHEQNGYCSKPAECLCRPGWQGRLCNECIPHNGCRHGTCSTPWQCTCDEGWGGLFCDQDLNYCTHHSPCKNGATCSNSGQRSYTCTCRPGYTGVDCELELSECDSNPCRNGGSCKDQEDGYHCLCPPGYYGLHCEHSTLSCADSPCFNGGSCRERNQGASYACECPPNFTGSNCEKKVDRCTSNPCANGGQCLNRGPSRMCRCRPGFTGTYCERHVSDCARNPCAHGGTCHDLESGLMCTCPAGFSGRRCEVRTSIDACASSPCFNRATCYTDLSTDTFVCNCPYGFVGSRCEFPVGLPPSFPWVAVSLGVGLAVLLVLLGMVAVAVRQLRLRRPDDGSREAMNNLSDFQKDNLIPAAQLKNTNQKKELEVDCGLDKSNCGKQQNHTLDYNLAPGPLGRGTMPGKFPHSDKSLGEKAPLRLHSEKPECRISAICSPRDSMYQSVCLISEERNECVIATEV
# PROCEDURE SUMMARY: FACS on CHO-cDLL4 cells
Give EC50 for every item shown.
Give bare numbers, in nM.

DLLBII133G05 (VHH, not shown: small tags and cut ends) VHH: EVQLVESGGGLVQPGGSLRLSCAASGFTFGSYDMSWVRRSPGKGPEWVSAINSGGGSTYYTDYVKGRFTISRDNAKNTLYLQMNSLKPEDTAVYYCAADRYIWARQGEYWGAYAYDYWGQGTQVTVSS :: 2.7
DLLBII133A09 (VHH, not shown: small tags and cut ends) VHH: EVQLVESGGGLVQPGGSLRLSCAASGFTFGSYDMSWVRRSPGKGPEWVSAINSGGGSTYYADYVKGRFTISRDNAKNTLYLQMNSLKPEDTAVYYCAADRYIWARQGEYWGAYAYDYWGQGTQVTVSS :: 2.3
DLLBII129E11 (VHH, not shown: small tags and cut ends) VHH: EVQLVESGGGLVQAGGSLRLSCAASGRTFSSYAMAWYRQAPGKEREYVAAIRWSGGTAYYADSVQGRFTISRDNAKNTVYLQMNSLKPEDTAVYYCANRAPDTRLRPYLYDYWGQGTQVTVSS :: 4.2

Next binder, please.
Enquiry: Reported EC50, binder DLLBII136C07 (VHH, not shown: small tags and cut ends) VHH: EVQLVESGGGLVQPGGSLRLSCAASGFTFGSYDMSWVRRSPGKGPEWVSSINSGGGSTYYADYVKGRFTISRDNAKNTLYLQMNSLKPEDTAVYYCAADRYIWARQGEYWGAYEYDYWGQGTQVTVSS : ____
Return: 3.5
